log10(Ki) for assorted compounds
molecular target: UniProt:Q62758; experiment: pKi against 5-hydroxytryptamine 4 receptor in rat striatum membrane; assay type: cell membranes
Sequence (Q62758 whole entry): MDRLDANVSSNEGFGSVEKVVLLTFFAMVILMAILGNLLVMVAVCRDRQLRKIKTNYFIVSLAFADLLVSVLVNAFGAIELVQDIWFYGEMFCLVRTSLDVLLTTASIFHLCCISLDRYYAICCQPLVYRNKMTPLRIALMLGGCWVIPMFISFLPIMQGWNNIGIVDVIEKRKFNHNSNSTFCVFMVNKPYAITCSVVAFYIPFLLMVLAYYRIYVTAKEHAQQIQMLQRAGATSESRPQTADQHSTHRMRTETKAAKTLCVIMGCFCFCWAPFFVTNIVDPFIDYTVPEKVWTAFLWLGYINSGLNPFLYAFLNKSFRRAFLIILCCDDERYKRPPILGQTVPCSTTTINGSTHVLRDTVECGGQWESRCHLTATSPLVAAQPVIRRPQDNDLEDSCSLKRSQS
Friendly reminder: values = log10 of Ki, unit nM.

1. CS(=O)(=O)NCCN1CCC(COC(=O)c2cccc3nc[nH]c23)CC1 : 1.42
2. CCCCN1CCC(COC(=O)c2cc(Cl)cc3[nH]cnc23)CC1 : 0.46
3. CS(=O)(=O)NCCN1CCC(COC(=O)c2cc(Cl)cc3[nH]cnc23)CC1 : 0.36
4. CCCCN1CCC(CNC(=O)c2cc(Cl)cc3[nH]cnc23)CC1 : -0.49
5. CCCCN1CCC(COC(=O)c2cccc3nc[nH]c23)CC1 : 1.39

Entry under test: CS(=O)(=O)NCCN1CCC(CNC(=O)c2cc(Cl)cc3[nH]cnc23)CC1 . Its log10(Ki) was -0.96

Entry under test: CCCCN1CCC(CNC(=O)c2cc(Cl)c(N)c3[nH]cnc23)CC1 . Its log10(Ki) was 1.35

Entry under test: CCCCN1CCC(CNC(=O)c2ccc(N)c3[nH]cnc23)CC1 . Its log10(Ki) was 2.06

Entry under test: CCCCCN1CCC(CNC(=O)c2cc(Cl)cc3[nH]cnc23)CC1 . Its log10(Ki) was -0.27

Entry under test: CC(C)CN1CCC(CNC(=O)c2cc(Cl)cc3c2ncn3Cc2ccccc2)CC1 . Its log10(Ki) was 1.84
